A collection of binders and their measured binning response (unit not given)
- tgt: T1, DLL3 target antigen coated on Octet SA tips (binning experiment) (Homo sapiens (Human), UniProt Q9NYJ7 27-492, Probably biotinylated for capture on streptavidin (SA) tips. The site is not stated.)
- T1 sequence: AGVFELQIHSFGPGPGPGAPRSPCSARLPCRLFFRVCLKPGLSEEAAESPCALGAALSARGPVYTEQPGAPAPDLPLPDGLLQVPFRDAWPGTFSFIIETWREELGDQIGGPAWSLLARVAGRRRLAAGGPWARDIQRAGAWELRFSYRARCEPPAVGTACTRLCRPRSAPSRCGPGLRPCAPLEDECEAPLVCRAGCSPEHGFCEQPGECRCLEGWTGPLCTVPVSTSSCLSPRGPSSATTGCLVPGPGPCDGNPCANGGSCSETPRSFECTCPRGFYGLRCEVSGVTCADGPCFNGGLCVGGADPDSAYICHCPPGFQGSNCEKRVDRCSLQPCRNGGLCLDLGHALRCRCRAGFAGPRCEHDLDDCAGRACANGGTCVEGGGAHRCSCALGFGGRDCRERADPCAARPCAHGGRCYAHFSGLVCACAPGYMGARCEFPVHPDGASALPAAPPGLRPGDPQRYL
- assay: Octet binning on DLL3-coated SA tips; competitor: 3HCE87
Hey, just send me the number, nothing else.

Example cases with answers are listed next.
* anti-human DLL3 BiTE (bispecific antibody, also called DLL3 BiTEs) QVQLQESGPGLVKPSETLSLTCTVSGGSISSYYWSWIRQPPGKGLEWIGYVYYSGTTNYNPSLKSRVTISVDTSKNQFSLKLSSVTAADTAVYYCASIAVTGFYFDYWGQGTLVTVSSGGGGSGGGGSGGGGSEIVLTQSPGTLSLSPGERVTLSCRASQRVNNNYLAWYQQRPGQAPRLLIYGASSRATGIPDRFSGSGSGTDFTLTISRLEPEDFAVYYCQQYDRSPLTFGGGTKLEIK | 125
* 3HCE4 anti-DLL3 VHH (VHH, In the binning assay it was used as a periplasmic extract) VHH: QVQLQESGGGLVQAGASLKLSCAVSGRAGSSYDMGWLRQAPGKEREFVAIITWSGNTAYKDSVKGRFIISRDNAKNTVYLEMNSLAPEDTAVYYCAAALSEKKYEYWGQGTQVTVSS | 120
* 3HCE56 anti-DLL3 VHH (VHH, In the binning assay it was used as a periplasmic extract) VHH: QVQLQESGGGLVQAGGSLRLSCAASGRTFSVDAMGWLRQAPGKEREFVVVIDWTGGSTAYADSVKGRFTISRDNARNTVYLQMNNLKPEDTGVYYCAARERSRTAYDYWGQGTQVTVSS | -99.1
* 2HCE117 anti-DLL3 VHH (VHH, In the binning assay it was used as a periplasmic extract) VHH: QVQLQESGGGLVQPGGSLRLSCAASGFTFSSYAMSWVRQAPGKGLEWVSDINSGGGSTYYADSVKGRFTISRDNAKNTLYLQMDSLKPEDTAVYYCATPFEIGSWGQGTQVTVSS | -98.7
* 2HCE27 anti-DLL3 VHH (VHH, In the binning assay it was used as a periplasmic extract; also called anti-DLL3 (2HCE27)) VHH: QVQLQESGGGLVQAGGSLRLSCAASGRTFRSYAMGWFRQAPGKEREFIAVIIMSDGSTSYADSVKGRFTISRDNAKNTLYLQMNSLKPEDTAVYYCAARRDYFTGVYDYWGQGTQVTVSS | 87.5

Please examine the following record next.
Fill in: binning response (unit not given) of 3HCE87 anti-DLL3 VHH (VHH, In the binning assay it was used as a periplasmic extract) VHH: QVQLQESGGGLVQAGGSLRLSCAASGFIFDDYIIGWFRQAPGKEREFVAAISWSGSATAYADSVKGRFTISRDNAKNTLYLQMNTLKPEDTAVYYCAASSRGPYNSGSSYDYWGQGTQVTVSS is ___
0
